# experimental.system: T1, pCD163-SRCR1-9-huFc (porcine, UniProt Q2VL90 47-1028, limits assumed)
# T1 construct: also called pCD163:SRCR1-9-Fc; pCD163SRCR1-9-Fc; not shown: human Fc (huFc)
# T1 sequence: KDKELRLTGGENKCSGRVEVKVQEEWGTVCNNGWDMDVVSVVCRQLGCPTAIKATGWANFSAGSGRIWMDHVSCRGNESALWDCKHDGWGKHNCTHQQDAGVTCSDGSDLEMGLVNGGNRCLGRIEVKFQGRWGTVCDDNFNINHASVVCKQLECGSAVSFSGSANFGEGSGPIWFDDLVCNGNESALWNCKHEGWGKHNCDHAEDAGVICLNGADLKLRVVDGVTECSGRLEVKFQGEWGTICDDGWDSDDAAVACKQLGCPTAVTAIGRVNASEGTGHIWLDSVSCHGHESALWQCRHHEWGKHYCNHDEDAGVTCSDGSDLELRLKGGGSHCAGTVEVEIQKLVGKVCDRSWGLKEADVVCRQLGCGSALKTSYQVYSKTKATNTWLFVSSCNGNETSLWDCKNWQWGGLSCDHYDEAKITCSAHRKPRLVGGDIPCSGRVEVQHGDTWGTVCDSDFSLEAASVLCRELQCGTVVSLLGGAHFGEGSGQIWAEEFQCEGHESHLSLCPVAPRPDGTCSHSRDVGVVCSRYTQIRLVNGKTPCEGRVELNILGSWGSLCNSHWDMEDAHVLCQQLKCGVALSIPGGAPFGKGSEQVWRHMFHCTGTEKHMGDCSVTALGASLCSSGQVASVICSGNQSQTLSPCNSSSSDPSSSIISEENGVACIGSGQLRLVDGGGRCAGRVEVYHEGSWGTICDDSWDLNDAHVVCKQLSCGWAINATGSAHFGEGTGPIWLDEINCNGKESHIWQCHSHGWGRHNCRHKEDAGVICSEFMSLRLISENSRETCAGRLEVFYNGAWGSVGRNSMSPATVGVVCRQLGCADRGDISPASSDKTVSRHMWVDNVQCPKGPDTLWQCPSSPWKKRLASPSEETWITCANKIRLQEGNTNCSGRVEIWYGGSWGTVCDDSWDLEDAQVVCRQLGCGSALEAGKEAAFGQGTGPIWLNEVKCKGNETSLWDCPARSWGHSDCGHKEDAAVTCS
# run.description: SPR (Biacore 3000), antigen amine-coupled on CM5, VHH injected, pH 7.4
property.label: Kd (nM)
Just the number please, in nM, no unit attached.

Answered examples (3):
binder="VHH 023 (4E10) (VHH, Llama single domain antibody; also called 70(#23); VHCDR3 70(#23); not shown: tags: c-myc tag in periplasmic extract (ELISA, FACS); FLAG and His tags in purified VHH (SPR, infection assays)) VHH: QVQLVESGGGLVQAGGSLRLSCVASSRTSSTYAMGWFRQGPGKERDFVAIISFGGTFYADSVKGRFTISRDNAKNTVYLQMNSLKPEDTAVYYCAAGRTLSKRADSYASWGQGTQVTVSS" numeric_value=3.1
binder="VHH 019 (3E11) (VHH, Llama single domain antibody; also called 47(#19); VHCDR3 47(#19); not shown: tags: c-myc tag in periplasmic extract (ELISA, FACS); FLAG and His tags in purified VHH (SPR, infection assays)) VHH: QVQLQESGGGLVQVGSSLRLSCVTSGRTPSRYVMGWFRQAPGQEREFVAAISWSGRAPYADSVKGRFTISRDNAKNTVYLQMNSLKPEDTGVYYCAGGEGAIKWTTLDAYDYWGQGTQVTVSS" numeric_value=8.77
binder="VHH 011 (2B06) (VHH, Llama single domain antibody; also called 57(#11); VHCDR3 57(#11); not shown: tags: c-myc tag in periplasmic extract (ELISA, FACS); FLAG and His tags in purified VHH (SPR, infection assays)) VHH: EVQLVESGGGLVQAGGSLRLSCAASGRTLSVYGTGWFRQAPGKEREFVAGISGTTGSTLYADSVKGRFTISRDNAKNTVYLQMNSLKSEDTALYYCAAGGRVYITTSSWAYWGQGTQVTVSS" numeric_value=71.4

// next item, Kd requested
Req: Form field: reported Kd of VHH 017 (3D03) (VHH, Llama single domain antibody; also called 29(#17); VHCDR3 29(#17); not shown: tags: c-myc tag in periplasmic extract (ELISA, FACS); FLAG and His tags in purified VHH (SPR, infection assays)) VHH: QLQLVESGGGLVQPGGSLRLSCAASGFTLDDYTIGWFRQAPGKEREGVSCINSITSNTYYADSVKGRFTISRDNAKNTVYLQMNSLTAEDTAIYYCAADSGLFSGSSCLKYRAMRFGSWGQGTQVTVSS
Resp: 75.2
